Below, each entry is listed with its recorded % effect of Dhr 20 on dp/dtmax.
# Test system: heart rate, systolic left ventricular pressure, left ventricular dp/dt max and mean arterial blood pressure
# EXPERIMENT: Haemodynamic profile in anaesthetized rats
# Format: in vivo, rat
# TEST SETTINGS: anaesthetized rat, i.v., at Dhr 20; left ventricular
METRIC: % effect of Dhr 20 on dp/dtmax (%)

>>> df
                                    compound                          metric  value_observed
 0  COc1ccc(CCN(C)CCCN(Cc2ccc([N+](=O)[O-])cc2)c2ccc(OC)c(OC)c2)cc1OC [Example E6]  % effect of Dhr 20 on dp/dtmax              -5
 1  CCCCC(=O)N(CCCN(C)CCc1ccc(OC)c(OC)c1)c1ccc(OC)c(OC)c1 [Example E12]  % effect of Dhr 20 on dp/dtmax              -6
 2  COc1ccc(CCN(C)CCCN(C(=O)Oc2ccccc2)c2ccc(OC)c(OC)c2)cc1OC [Example E25]  % effect of Dhr 20 on dp/dtmax              -2
 3  COc1ccc(CCN(C)CCCN(c2ccc(OC)c(OC)c2)c2ncc([N+](=O)[O-])cc2[N+](=O)[O-])cc1OC [Example E44]  % effect of Dhr 20 on dp/dtmax              -8
 4  COc1ccc(CCN(C)CCCN(Cc2ccccc2)c2ccc(OC)c(OC)c2)cc1OC [Example E4]  % effect of Dhr 20 on dp/dtmax             -12
 5  CCCNC(=O)N(CCCN(C)CCc1ccc(OC)c(OC)c1)c1ccc(OC)c(OC)c1 [Example E27]  % effect of Dhr 20 on dp/dtmax              -1
 6  COc1ccc(CCN(C)CCN(C(=O)NC(C)c2ccccc2)c2ccc(OC)c(OC)c2)cc1OC (stereo not drawn) [Example E32]  % effect of Dhr 20 on dp/dtmax              -3
 7  COc1ccc(CCN(C)CCCN(Cc2ccccc2[N+](=O)[O-])c2ccc(OC)c(OC)c2)cc1OC [Example E1]  % effect of Dhr 20 on dp/dtmax              -3
 8  CCCCCN(CCCN(C)CCc1ccc(OC)c(OC)c1)c1ccc(OC)c(OC)c1 [Example E34]  % effect of Dhr 20 on dp/dtmax             -10
 9  COc1ccc(CCN(C)CCCN(C(=O)CCc2ccccc2)c2ccc(OC)c(OC)c2)cc1OC [Example E15]  % effect of Dhr 20 on dp/dtmax              -7
10  CCCCOC(=O)N(CCCN(C)CCc1ccc(OC)c(OC)c1)c1ccc(OC)c(OC)c1 [Example E24]  % effect of Dhr 20 on dp/dtmax              -8
11  COc1ccc(CCN(C)CCCN(C(=O)NCc2ccccc2)c2ccc(OC)c(OC)c2)cc1OC [Example E30]  % effect of Dhr 20 on dp/dtmax             -20

Origin of measurements: patent US5494933A
